// reported MIC per item
Test system: Mycobacterium tuberculosis
Assay: Antimicrobial activity against non replicating persistence Mycobacterium tuberculosis H37Rv in aerobic condition assessed as bacterial density after 7 days
Type: functional
Conditions: 168 h
REPORTED_ENDPOINT: MIC

COMPOUND	REPORTED_ENDPOINT	RESULT
CO[C@H]1/C=C/O[C@@]2(C)Oc3c(C)c(O)c4c(O)c(c(/C=N/N5CCN(C)CC5)c(O)c4c3C2=O)NC(=O)/C(C)=C\C=C\[C@H](C)[C@H](O)[C@@H](C)[C@@H](O)[C@@H](C)[C@H](OC(C)=O)[C@@H]1C [RIFAMPIN]	MIC	≤ 0.5 µM
CCC[C@@H]1C[C@@H](C(=O)N[C@H](C(C)Cl)[C@H]2O[C@H](SC)[C@H](O)[C@@H](O)[C@H]2O)N(C)C1 (single isomer, unassigned) [CLINDAMYCIN]	MIC	> 128 µM
NCC[C@H](O)C(=O)N[C@@H]1C[C@H](N)[C@@H](O[C@H]2O[C@H](CN)[C@@H](O)[C@H](O)[C@H]2O)[C@H](O)[C@H]1O[C@H]1O[C@H](CO)[C@@H](O)[C@H](N)[C@H]1O [AMIKACIN]	MIC	≤ 0.5 µM
CC[C@H]1OC(=O)[C@H](C)[C@@H](O[C@H]2C[C@@](C)(OC)[C@@H](O)[C@H](C)O2)[C@H](C)[C@@H](O[C@@H]2O[C@H](C)C[C@H](N(C)C)[C@H]2O)[C@](C)(OC)C[C@@H](C)C(=O)[C@H](C)[C@@H](O)[C@]1(C)O [CLARITHROMYCIN]	MIC	1.6 µM
C[C@]1(Cn2ccnn2)[C@H](C(=O)O)N2C(=O)C[C@H]2S1(=O)=O [TAZOBACTAM]	MIC	> 128 µM
Nc1ccc(C(=O)O)c(O)c1 [AMINOSALICYLIC ACID]	MIC	12.3 µM
NNC(=O)c1ccncc1 [ISONIAZID]	MIC	≤ 0.5 µM
COc1c(N2C[C@@H]3CCCN[C@@H]3C2)c(F)cc2c(=O)c(C(=O)O)cn(C3CC3)c12 [MOXIFLOXACIN]	MIC	≤ 0.5 µM
CO[C@H]1/C=C/O[C@@]2(C)Oc3c(C)c(O)c4c(c3C2=O)C2=NC3(CCN(CC(C)C)CC3)NC2=C(NC(=O)/C(C)=C\C=C\[C@H](C)[C@H](O)[C@@H](C)[C@@H](O)[C@@H](C)[C@H](OC(C)=O)[C@@H]1C)C4=O [RIFABUTIN]	MIC	≤ 0.5 µM
COc1cc(Cc2cnc(N)nc2N)cc(OC)c1OC [TRIMETHOPRIM]	MIC	> 128 µM
O=[N+]([O-])c1cn2c(n1)OC[C@@H](OCc1ccc(OC(F)(F)F)cc1)C2 [PRETOMANID]	MIC	0.7 µM
CC[C@@H](CO)NCCN[C@@H](CC)CO [ETHAMBUTOL]	MIC	1 µM
CC(C)/N=c1\cc2n(-c3ccc(Cl)cc3)c3ccccc3nc-2cc1Nc1ccc(Cl)cc1 [CLOFAZIMINE]	MIC	0.7 µM
